Biological target: Gamma-aminobutyric acid receptor subunit alpha-3/ beta-2 (Homo sapiens, UniProt P34903+P47870)
Sequence (P47870 whole entry): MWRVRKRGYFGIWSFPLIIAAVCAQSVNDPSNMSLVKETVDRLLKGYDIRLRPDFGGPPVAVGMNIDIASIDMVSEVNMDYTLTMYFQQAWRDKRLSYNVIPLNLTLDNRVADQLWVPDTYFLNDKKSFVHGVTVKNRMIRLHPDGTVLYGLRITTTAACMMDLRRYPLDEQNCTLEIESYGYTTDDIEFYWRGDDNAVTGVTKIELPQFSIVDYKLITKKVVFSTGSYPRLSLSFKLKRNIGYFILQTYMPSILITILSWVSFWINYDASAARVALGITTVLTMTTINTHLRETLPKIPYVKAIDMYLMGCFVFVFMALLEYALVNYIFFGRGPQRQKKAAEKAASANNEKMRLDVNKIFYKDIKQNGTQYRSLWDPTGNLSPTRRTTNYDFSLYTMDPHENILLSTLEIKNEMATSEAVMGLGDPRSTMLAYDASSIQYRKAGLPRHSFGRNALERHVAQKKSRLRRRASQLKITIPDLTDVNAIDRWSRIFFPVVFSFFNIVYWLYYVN
Sequence (P34903 whole entry): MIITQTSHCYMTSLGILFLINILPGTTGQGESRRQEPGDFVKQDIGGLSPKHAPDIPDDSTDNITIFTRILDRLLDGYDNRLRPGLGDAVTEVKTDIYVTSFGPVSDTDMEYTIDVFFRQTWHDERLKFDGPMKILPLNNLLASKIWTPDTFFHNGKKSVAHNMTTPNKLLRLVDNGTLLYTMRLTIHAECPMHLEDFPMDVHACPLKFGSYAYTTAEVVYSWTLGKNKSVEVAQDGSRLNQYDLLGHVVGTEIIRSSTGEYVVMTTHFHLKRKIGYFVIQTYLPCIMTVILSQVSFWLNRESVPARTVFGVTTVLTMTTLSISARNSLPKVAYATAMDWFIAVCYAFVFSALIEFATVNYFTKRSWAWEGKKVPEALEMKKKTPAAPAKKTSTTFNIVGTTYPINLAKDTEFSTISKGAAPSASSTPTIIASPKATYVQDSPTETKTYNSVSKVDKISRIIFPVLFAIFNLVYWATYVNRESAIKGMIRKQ
Assay: Modulation of GABA Aalpha3beta2 receptor expressed in Xenopus laevis oocytes assessed as potentiation of GABA-induced chloride current at holding potential -70 mV by two-microelectrode voltage clamp technique
Type: cell-based, Oocyte
quantity.measured: pEC50
Notebook: values listed as pEC50 are -log10 of the concentration (mol/L).

Here are 2 compounds together with their reported answers.
• CCCc1cc(N)c(O)c(-c2ccc(OC)c(CCC)c2)c1 = 5.08
• C=CCc1cc(NC(C)=O)c(O)c(-c2ccc(OC)c(CC=C)c2)c1 = 5.05

Now consider a different compound.
QUERY: Name the recorded pEC50 for C=CCc1ccc(O)c(-c2ccc(O)c(CC=C)c2)c1 .
RESULT: 4.28

* * *

Molecular target: GABA-A receptor alpha-1/beta-3 (Homo sapiens, UniProt P14867+P28472)
Test: Modulation of GABA Aalpha1beta3 receptor expressed in Xenopus laevis oocytes assessed as potentiation of GABA-induced chloride current at holding potential -70 mV by two-microelectrode voltage clamp technique
quantity.measured: EC50

QUERY: Short answer please: EC50, GABA-A receptor alpha-1/beta-3 (Homo sapiens, UniProt P14867+P28472), entry C=CCc1ccc(O)c(-c2ccc(O)c(CC=C)c2)c1 [HONOKIOL]
RESULT: 59.6 µM

* * *

Target: GABA-A receptor; GABA-A site (alpha1/beta2 interface) (Homo sapiens) (UniProt P14867+P47870)
Assay: Modulation of GABA Aalpha1beta2 receptor expressed in Xenopus laevis oocytes assessed as potentiation of GABA-induced chloride current at holding potential -70 mV at 30 uM by two-microelectrode voltage clamp technique relative to GABA
Type: cell-based
Conditions: Oocyte
Recorded Activity split into classes bottom = under 70%, middle = from 70% up to 600%, top = 600% and over

Reference set, count: 5
- C=CCc1ccc(OCCC)c(-c2ccc(O)c(CC=C)c2)c1: middle
- C=CCc1ccc(O)c(-c2cc(CC=C)ccc2O)c1: middle
- C=CCc1cc(-c2ccc(OC)c(CC=C)c2)c(O)c(N(C)C)c1: middle
- C=CCc1cc(NC(C)=O)c(O)c(-c2ccc(OC)c(CC=C)c2)c1: top
- C=CCc1cc(NC)c(O)c(-c2ccc(OC)c(CC=C)c2)c1: top

Now for another entry.
QUERY: Which band does C=CCc1ccc(O)c(-c2ccc(OC)c(CC=C)c2)c1 fall in?
RESULT: top

* * *

Test: Modulation of GABA alpha1beta2gamma2s receptor expressed in Xenopus laevis oocytes assessed as potentiation of GABA-induced chloride current at holding potential -70 mV by two-microelectrode voltage clamp technique
Assay type: cell-based
Conditions: Oocyte
quantity.measured: EC50 (µM)
Numeric answer only, unit µM assumed.

QUERY: Given the entry C=CCc1ccc(O)c(-c2ccc(O)c(CC=C)c2)c1 , report its measured EC50.
RESULT: 36.2

* * *

Biological target: Gamma-aminobutyric acid receptor subunit alpha-1/ beta-1 (Homo sapiens, UniProt P14867+P18505)
Sequence (P14867 whole entry): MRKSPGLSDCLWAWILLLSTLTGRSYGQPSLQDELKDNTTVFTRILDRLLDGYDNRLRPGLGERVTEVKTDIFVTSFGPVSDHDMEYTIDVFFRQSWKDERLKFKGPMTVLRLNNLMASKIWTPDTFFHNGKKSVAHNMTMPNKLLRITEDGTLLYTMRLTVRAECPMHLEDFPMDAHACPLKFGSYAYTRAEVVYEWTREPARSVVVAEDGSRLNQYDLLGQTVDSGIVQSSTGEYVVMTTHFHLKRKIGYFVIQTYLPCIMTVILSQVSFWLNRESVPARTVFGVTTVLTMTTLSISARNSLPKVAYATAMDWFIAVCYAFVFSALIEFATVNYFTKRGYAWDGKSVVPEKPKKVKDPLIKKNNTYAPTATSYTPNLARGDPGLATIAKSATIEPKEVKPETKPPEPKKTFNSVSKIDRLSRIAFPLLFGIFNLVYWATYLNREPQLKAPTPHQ
Sequence (P18505 whole entry): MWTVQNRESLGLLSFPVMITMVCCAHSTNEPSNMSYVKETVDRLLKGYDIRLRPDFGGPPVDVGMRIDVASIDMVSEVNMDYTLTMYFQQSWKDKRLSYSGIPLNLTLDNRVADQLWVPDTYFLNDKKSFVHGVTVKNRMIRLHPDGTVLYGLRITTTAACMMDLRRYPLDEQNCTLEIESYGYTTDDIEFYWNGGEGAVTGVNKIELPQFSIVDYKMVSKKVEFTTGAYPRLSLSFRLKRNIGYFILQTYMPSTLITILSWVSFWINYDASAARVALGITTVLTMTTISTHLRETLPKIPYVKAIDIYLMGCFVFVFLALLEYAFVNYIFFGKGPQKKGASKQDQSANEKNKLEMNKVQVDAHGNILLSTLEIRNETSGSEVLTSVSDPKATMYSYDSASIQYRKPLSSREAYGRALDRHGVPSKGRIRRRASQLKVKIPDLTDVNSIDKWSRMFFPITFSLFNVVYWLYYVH
Assay: Modulation of GABA Aalpha1beta1 receptor expressed in Xenopus laevis oocytes assessed as potentiation of GABA-induced chloride current at holding potential -70 mV by two-microelectrode voltage clamp technique
quantity.measured: EC50 (µM)
Respond with the bare value in µM.

QUERY: Find the recorded EC50 belonging to C=CCc1ccc(O)c(-c2ccc(O)c(CC=C)c2)c1 [HONOKIOL] and report it.
RESULT: 57
